System: submerged direct sown paddy (RD-23)
testDetails: Phytotoxicity, spray treatment at 1.5 to 3.0 leaf-stage (Test Example 3)
Type: in vivo
details: 50 g ai/ha; spray at 1.5 to 3.0 leaf-stage; 4 weeks later; RD-23

compound: COc1nc(OC)nc(C(=O)c2cccc(F)c2N(C)S(=O)(=O)C(F)F)n1
testedOn: submerged direct sown paddy (RD-23)
Phytotoxicity (%) ORYSW*^2: 10

compound: COc1nc(OC)nc(C(=O)c2cccc(Cl)c2N(C)S(=O)(=O)C(F)F)n1
testedOn: submerged direct sown paddy (RD-23)
Phytotoxicity (%) ORYSW*^2: 10

compound: COc1nc(OC)nc(C(O)c2cccc(Cl)c2N(C)S(=O)(=O)C(F)F)n1 (stereo not shown)
testedOn: submerged direct sown paddy (RD-23)
Phytotoxicity (%) ORYSW*^2: 0

compound: COc1nc(OC)nc(C(O)c2cccc(F)c2N(C)S(=O)(=O)C(F)F)n1 (stereo not shown)
testedOn: submerged direct sown paddy (RD-23)
Phytotoxicity (%) ORYSW*^2: 0

###

Tested on: Leptochloa chinensis
testDetails: Weed control by spray treatment at 1.5 to 3.0 leaf-stage (Test Example 3)
Assay type: in vivo
details: 50 g ai/ha; spray at 1.5 to 3.0 leaf-stage; 4 weeks later

compound: COc1nc(OC)nc(C(O)c2cccc(F)c2N(C)S(=O)(=O)C(F)F)n1 (stereo not shown) [(a-3)]
testedOn: Leptochloa chinensis
Herbicidal effect (%) LEFCH: 80%

compound: COc1nc(OC)nc(C(=O)c2cccc(Cl)c2N(C)S(=O)(=O)C(F)F)n1 [(a-2)]
testedOn: Leptochloa chinensis
Herbicidal effect (%) LEFCH: 65%

compound: COc1nc(OC)nc(C(O)c2cccc(Cl)c2N(C)S(=O)(=O)C(F)F)n1 (stereo not shown) [(a-4)]
testedOn: Leptochloa chinensis
Herbicidal effect (%) LEFCH: 50%

compound: COc1nc(OC)nc(C(=O)c2cccc(F)c2N(C)S(=O)(=O)C(F)F)n1 [(a-1)]
testedOn: Leptochloa chinensis
Herbicidal effect (%) LEFCH: 90%

###

Tested on: submerged direct sown paddy (Nipponbare)
testDetails: Phytotoxicity, spray treatment at 1.5 to 3.0 leaf-stage (Test Example 3)
Type: in vivo
details: 50 g ai/ha, spray at 1.5 to 3.0 leaf-stage, 4 weeks later
Experimental: Carrier: 5 parts by weight of acetone Surfactant: one part by weight of benzyloxy polyglycol ether. Above described carrier and surfactant are mixed with one part by weight of the active compound ((a) ingredient and (b) ingredient) and the resulting preparation is then diluted with water to obtain given amount of the test drug (the formulation). […]
Collected Phytotoxicity (%) ORYSW*^1 values appear next to each entry.

molecule: COc1nc(OC)nc(C(O)c2cccc(F)c2N(C)S(=O)(=O)C(F)F)n1 (stereo not shown)
resultUnits: %
Phytotoxicity (%) ORYSW*^1: 10

molecule: COc1nc(OC)nc(C(=O)c2cccc(Cl)c2N(C)S(=O)(=O)C(F)F)n1
resultUnits: %
Phytotoxicity (%) ORYSW*^1: 10

molecule: COc1nc(OC)nc(C(=O)c2cccc(F)c2N(C)S(=O)(=O)C(F)F)n1
resultUnits: %
Phytotoxicity (%) ORYSW*^1: 10

molecule: COc1nc(OC)nc(C(O)c2cccc(Cl)c2N(C)S(=O)(=O)C(F)F)n1 (stereo not shown)
resultUnits: %
Phytotoxicity (%) ORYSW*^1: 5

###

Collected Phytotoxicity (%) ORYSP values appear next to each entry.
System: transplanted rice
testDetails: Phytotoxicity, flooded paddy field, treatment at 3 leaf-stage (Test Example 2)
Assay type: in vivo
details: rice, in vivo, 4 weeks
measure: Phytotoxicity (%) ORYSP

molecule: Cc1ccc(C(=O)COc2c(C(=O)c3ccc(Cl)c(C)c3Cl)c(C)nn2C)cc1 [(b-3), benzofenap]
measure: Phytotoxicity (%) ORYSP
resultValue: 0%
--
molecule: CS(=O)(=O)c1ccc(C(=O)C2C(=O)CCCC2=O)c(Cl)c1COCC1CCCO1 (stereo not drawn) [(b-7)]
measure: Phytotoxicity (%) ORYSP
resultValue: 0%
--
molecule: COC(=O)c1ccccc1CS(=O)(=O)NC(=O)Nc1nc(OC)cc(OC)n1 [(b-4), bensulfuron methyl]
measure: Phytotoxicity (%) ORYSP
resultValue: 0%
--
molecule: Cc1c(Cl)ccc(OC(C)C(=O)Nc2ccccc2)c1Cl (stereo not drawn) [(b-1), clomeprop]
measure: Phytotoxicity (%) ORYSP
resultValue: 0%
--
molecule: CCOc1ccccc1OS(=O)(=O)NC(=O)Nc1nc(OC)cc(OC)n1 [(b-5), ethoxysulfuron]
measure: Phytotoxicity (%) ORYSP
resultValue: 0%
--
molecule: CC(C)(NC(=O)C(Br)C(C)(C)C)c1ccccc1 (stereo not drawn) [(b-2), bromobutide]
measure: Phytotoxicity (%) ORYSP
resultValue: 0%

###

Collected Phytotoxicity (%) ORYSW*^2 values appear next to each entry.
Test system: submerged direct sown paddy (RD-23)
testDetails: Phytotoxicity, spray treatment at 1.5 to 3.0 leaf-stage (Test Example 3)
Format: in vivo
details: 30 g ai/ha; spray at 1.5 to 3.0 leaf-stage; 4 weeks later; RD-23
measure: Phytotoxicity (%) ORYSW*^2

molecule: COc1nc(OC)nc(C(=O)c2cccc(Cl)c2N(C)S(=O)(=O)C(F)F)n1
resultValue: 5
//
molecule: COc1nc(OC)nc(C(O)c2cccc(F)c2N(C)S(=O)(=O)C(F)F)n1 (stereo not shown)
resultValue: 0
//
molecule: COc1nc(OC)nc(C(O)c2cccc(Cl)c2N(C)S(=O)(=O)C(F)F)n1 (stereo not shown)
resultValue: 0
//
molecule: COc1nc(OC)nc(C(=O)c2cccc(F)c2N(C)S(=O)(=O)C(F)F)n1
resultValue: 5

###

System: Monochoria vaginalis Presl
testDetails: Weed control by spray treatment at 1.5 to 3.0 leaf-stage (Test Example 3)
Format: in vivo
details: 30 g ai/ha; spray at 1.5 to 3.0 leaf-stage; 4 weeks later
Collected Herbicidal effect (%) MOOVP values appear next to each entry.

compound: COc1nc(OC)nc(C(O)c2cccc(Cl)c2N(C)S(=O)(=O)C(F)F)n1 (stereo not shown)
Herbicidal effect (%) MOOVP: 25

compound: COc1nc(OC)nc(C(=O)c2cccc(F)c2N(C)S(=O)(=O)C(F)F)n1
Herbicidal effect (%) MOOVP: 85

compound: COc1nc(OC)nc(C(=O)c2cccc(Cl)c2N(C)S(=O)(=O)C(F)F)n1
Herbicidal effect (%) MOOVP: 40

compound: COc1nc(OC)nc(C(O)c2cccc(F)c2N(C)S(=O)(=O)C(F)F)n1 (stereo not shown)
Herbicidal effect (%) MOOVP: 65

###

System: submerged direct sown paddy (Nipponbare)
testDetails: Phytotoxicity, spray treatment at 1.5 to 3.0 leaf-stage (Test Example 3)
Format: in vivo
details: 30 g ai/ha, spray at 1.5 to 3.0 leaf-stage, 4 weeks later
Collected Phytotoxicity (%) ORYSW*^1 values appear next to each entry.
measure: Phytotoxicity (%) ORYSW*^1

compound: COc1nc(OC)nc(C(O)c2cccc(F)c2N(C)S(=O)(=O)C(F)F)n1 (stereo not shown) [(a-3)]
testedOn: submerged direct sown paddy (Nipponbare)
resultUnits: %
resultValue: 0
//
compound: COc1nc(OC)nc(C(=O)c2cccc(Cl)c2N(C)S(=O)(=O)C(F)F)n1 [(a-2)]
testedOn: submerged direct sown paddy (Nipponbare)
resultUnits: %
resultValue: 5
//
compound: COc1nc(OC)nc(C(=O)c2cccc(F)c2N(C)S(=O)(=O)C(F)F)n1 [(a-1)]
testedOn: submerged direct sown paddy (Nipponbare)
resultUnits: %
resultValue: 5
//
compound: COc1nc(OC)nc(C(O)c2cccc(Cl)c2N(C)S(=O)(=O)C(F)F)n1 (stereo not shown) [(a-4)]
testedOn: submerged direct sown paddy (Nipponbare)
resultUnits: %
resultValue: 0
